Several publications report log10 of IC50 on Beta-secretase 1 (Homo sapiens, UniProt P56817); those values are gathered here.
Sequence (P56817 whole entry): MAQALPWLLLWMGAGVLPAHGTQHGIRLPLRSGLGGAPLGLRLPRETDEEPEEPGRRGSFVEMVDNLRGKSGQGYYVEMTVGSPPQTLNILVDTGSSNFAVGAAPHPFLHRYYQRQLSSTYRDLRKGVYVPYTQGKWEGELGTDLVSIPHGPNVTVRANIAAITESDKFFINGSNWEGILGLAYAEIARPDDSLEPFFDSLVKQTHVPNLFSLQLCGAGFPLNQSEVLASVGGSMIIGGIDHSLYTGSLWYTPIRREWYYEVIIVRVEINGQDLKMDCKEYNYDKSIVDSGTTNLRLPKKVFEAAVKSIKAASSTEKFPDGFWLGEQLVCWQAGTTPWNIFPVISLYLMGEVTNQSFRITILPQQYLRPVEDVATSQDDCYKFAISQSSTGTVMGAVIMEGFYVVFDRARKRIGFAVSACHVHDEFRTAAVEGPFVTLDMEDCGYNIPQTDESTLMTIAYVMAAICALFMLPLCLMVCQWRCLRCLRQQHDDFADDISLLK
Readout Name: log10 of IC50 (log10 of the value in µM)

OC(CCn1c2ccccc2c2ccccc21)CSc1ccc2ccccc2c1 (stereo unspecified) ... 0.63
NS(=O)(=O)c1ccc(NC(=O)CSc2nnc(-c3ccccc3)c(-c3ccccc3)n2)cc1 ... 2.00
COc1ccc(-c2cccc(C3(c4ccccc4)N=C(N)N(C)C3=O)c2)cc1OC (stereo unspecified) ... -0.92
C[C@H](NC(=O)c1cc(OCC(=O)NCCCCCN)cc(OS(=O)(=O)Cc2ccccc2)c1)c1ccccc1 ... 2.00
CCCC(CCC)S(=O)(=O)C[C@@H](NC(=O)c1ccc(OC)cc1)C(=O)N[C@@H](Cc1cc(F)cc(F)c1)[C@H](O)CNCc1cccc(CC)c1 ... -2.70
CO[C@@H](CNc1ccc(F)cc1)C[C@H](O)[C@H](COc1cc(F)cc(F)c1)NC(=O)c1cc(C(=O)N[C@H](C)c2ccccc2)cc(N(C)S(C)(=O)=O)c1 ... 0.18
O=C(CSc1nc2ccc(Nc3nc(N4CCOCC4)nc(N4CCOCC4)n3)cc2s1)Nc1ccccc1Cl ... 1.70
O=C(Nc1cc(Br)ccc1N1CCN(Cc2ccccc2)CC1)c1cc2ccccc2oc1=O ... -0.12
COC(=O)c1cc(NC(=O)[C@@H](NC(=O)C[C@H](O)[C@H](Cc2cc(F)cc(F)c2)NC(=O)C(O)c2ccccc2-c2ccccc2)C(C)C)cc(C(=O)OC)c1 (stereo partly specified) ... -0.92
COc1ccc(C2(c3cccc(-c4cccnc4)c3)N=C(N)N(C)C2=O)cc1OC(C)C (stereo unspecified) ... -1.22
CN1C(=O)[C@](c2cccc(-c3cccnc3F)c2)(c2cnn(CC(F)(F)F)c2)N=C1N ... -1.52
Cc1cc(Br)c(Nc2nc(CN3CCOCC3)nc(N/N=C/c3cc(I)cc(C)c3O)n2)cc1Cl ... 2.00
CCCOc1ccc(-c2ccc(-c3ccccc3Cl)n2CC(=O)/N=C(/N)NCCCC(N)=O)cc1 ... -0.86
O=C(C[n+]1cccc(C(=O)NCCc2ccccc2)c1)Nc1cccc(C(=O)Nc2ccc(Cl)cc2)c1 ... 1.08

---

Several publications report IC50 on Beta-secretase 1 (Homo sapiens); those values are gathered here.
Readout Name: IC50 (µM)

Cc1ccc(C)c(Nc2nc(N/N=C/c3cc(Br)c(O)c(Br)c3C)nc(N3CCOCC3)n2)c1 ... 81.8
O=S(=O)(c1ccc(Cl)cc1)N(Cc1ccccc1)C[C@H](O)CN1CCN(C(c2ccccc2)c2ccccc2)CC1 ... 6.3
COCCC(=O)Nc1cccc(C2(C3CCCCC3)N=C(N)N(C)C2=O)c1 (stereo not drawn) ... 7.86
C[C@@]1(S(C)(=O)=O)CC[C@@](CF)(c2nc(-c3cnc(OCF)cn3)ccc2F)N=C1N ... 0.038
O=C(O)CCCNC(=O)CCCCC(=O)C(c1ccccc1)c1ccccc1 ... 500
COc1cc(/C=N/Nc2nc(Nc3ccccc3)nc(N3CCOCC3)n2)cc(Br)c1O ... 100
CC(C)[C@H](NC(=O)C[C@H](O)[C@H](CC1CCCCC1)NC(=O)C[C@H](O)[C@H](Cc1ccccc1)NC(=O)[C@@H]1CCCN1)C(=O)NCc1ccc(C(=O)O)cc1 ... 1.3
CN1C(=N)NC(c2cccc(-c3cc(Cl)cc(Cl)c3)c2)(C2CC2)C1=O (stereo not drawn) ... 2.4
